- test.description: Displacement of [3H]SCH-23390 from dopamine D1-like receptor in porcine striatal homogenates after 30 mins by scintillation counting
- Format: tissue-based, Sus scrofa
pKi: −log10 of the molar value.
Output met for pKi not less than 7; output not met otherwise.

Past entries and their recorded results:
> print(dat)
                                   compound  classification
1    CN1CCc2cc(Cl)c(O)cc2[C@@H](c2ccccc2)C1             met
2  CCc1ccc2c(c1)[C@@H]1c3cc(O)c(O)cc3OC[C@H]1NC2 (racemic)         not met
3  Oc1cc2c(cc1O)[C@H]1c3cc(C(F)(F)F)ccc3CN[C@@H]1CO2 (racemic)         not met

Please look at the following compound next.
INPUT: Is pKi for Oc1cc2c(cc1O)[C@H]1c3ccccc3CN[C@@H]1CS2 (racemic) at or above 7?
OUTPUT: not met

###

Entries and their Ratio Ki
- Organism: Sus scrofa
- test.description: Selectivity ratio of Ki for dopamine D2-like receptor in porcine striatal homogenates to Ki for dopamine D1-like receptor in porcine striatal homogenates
- Assay type: tissue-based

INPUT: Tell us which Ratio Ki value is on record for Oc1cc2c(cc1O)[C@H]1c3cc(F)ccc3CN[C@@H]1CO2 (racemic)
OUTPUT: 8.5

INPUT: Tell me its Ratio Ki given CCc1ccc2c(c1)[C@@H]1c3cc(O)c(O)cc3OC[C@H]1NC2 (racemic) as the entry.
OUTPUT: 49

INPUT: Answer with the recorded Ratio Ki for the molecule listed here: Cc1ccc2c(c1)[C@@H]1c3cc(O)c(O)cc3OC[C@H]1NC2 (racemic)
OUTPUT: 55

INPUT: Supply recorded Ratio Ki for Oc1cc2c(cc1O)[C@H]1c3cc(C(F)(F)F)ccc3CN[C@@H]1CO2 (racemic) here.
OUTPUT: 14

INPUT: Identify measured Ratio Ki associated with Oc1cc2c(cc1O)[C@H]1c3ccccc3CN[C@@H]1CS2 (racemic)
OUTPUT: 15

###

- test.description: Displacement of [3H]spiperone from dopamine D2-like receptor in porcine striatal homogenates after 30 mins by scintillation counting
- Type: tissue-based, Sus scrofa
Examples of molecules with documented pKi follow.
The read-out pKi is expressed as -log10 of concentration in moles per litre.

Look over these answered cases.
> print(dat)
                                   molecule  measured
1  Cc1ccc2c(c1)[C@@H]1c3cc(O)c(O)cc3OC[C@H]1NC2 (racemic)      5.17
2  Oc1cc2c(cc1O)[C@H]1c3ccccc3CN[C@@H]1CS2 (racemic)      5.60
3  CCc1ccc2c(c1)[C@@H]1c3cc(O)c(O)cc3OC[C@H]1NC2 (racemic)      5.19

INPUT: Return pKi for the following molecule: Oc1cc2c(cc1O)[C@H]1c3cc(F)ccc3CN[C@@H]1CO2 (racemic)
OUTPUT: 6.13

INPUT: Provide measured pKi value, entry: Oc1cc2c(cc1O)[C@H]1c3cc(C(F)(F)F)ccc3CN[C@@H]1CO2 (racemic)
OUTPUT: 5.16

FYI, the data here is from ChEMBL document CHEMBL1932931.
